// data source = PubChem BioAssay (NCI)

Listed below: growth values for each entry.
# Tested on: IGROV1 ovarian
# Experiment Description: NCI-60 one-dose screen, 48 h (100 = growth as untreated, 0 = no growth, -100 = all killed)
# Experimental Setup: 10 µM
This is part of a sample that, as a whole, favours compounds with a hit. Of some 83,000 tested, about 20% had one in any assay.
Number only, in %; omit the unit.

Structure: NCCNc1ccc2cc(-c3nc4ccccc4[nH]3)c(=O)oc2c1
Study Target: IGROV1 ovarian
Result Units: %
growth: 99.8
//
Structure: COc1ccc(-c2nc(-c3nc4ccc(C)cc4[nH]3)c3ccccn23)cc1
Study Target: IGROV1 ovarian
Result Units: %
growth: 36.5

Next molecule, please.
Give growth for the following molecule: C#CCn1c(-c2cccc(OCCCCl)c2)nc2c1c(=O)n(C)c(=O)n2C
73.9
